Test system: MRSA K24 strain
Assay: Imipenem activity-potentiating effect, paper-disc method on plate containing imipenem
Format: cell-based, methicillin-resistant Staphylococcus aureus
Conditions: diameter of inhibition circle; 10 μg agent per 6 mm paper disc; plate with imipenem 10 μg/mL; 37° C., 20 hours
Experimental: In this example, clinically isolated MRSA K24 strain was used as an assay strain. […] The antibacterial activities against the assay strain in the plates were evaluated by a paper-disc method as follows. […]
ASSAY_ENDPOINT: MRSA (mm) [10 μg/6 mm disc]
Report only the number, with the unit mm understood.

Lookup: For the compound COC(=O)C1Cc2cc(Br)c(c(Br)c2)Oc2cc(cc(I)c2O)C[C@H](N)C(=O)N[C@@H]([C@@H](C)O)C(=O)N1 (some centres unmarked) [Compound (4), dibromo-iodo-eurypamide B methyl ester] , give its measured MRSA (mm) [10 μg/6 mm disc] value.
Found: 8

Lookup: Answer with reported MRSA (mm) [10 μg/6 mm disc] of CC(OCc1ccccc1)[C@@H]1NC(=O)[C@@H](NC(=O)OC(C)(C)C)Cc2cc(I)c(O)c(c2)Oc2c(Br)cc(cc2Br)C[C@@H](C(=O)O)NC1=O (some centres unmarked) [Compound (9)]
Found: 17

Lookup: Give MRSA (mm) [10 μg/6 mm disc] for the following compound: CC(OCc1ccccc1)[C@@H]1NC(=O)[C@@H](N)Cc2cc(I)c(O)c(c2)Oc2c(Br)cc(cc2Br)C[C@@H](C(=O)O)NC1=O (some centres unmarked) [Compound (11)]
Found: 12

Lookup: Specify measured MRSA (mm) [10 μg/6 mm disc] for C[C@@H](O)[C@@H]1NC(=O)[C@@H](NC(=O)OC(C)(C)C)Cc2cc(I)c(O)c(c2)Oc2c(Br)cc(cc2Br)CC(C(=O)O)NC1=O (some centres unmarked) [Compound (3), N-Boc-dibromo-iodo-eurypamide B] .
Found: 10

Lookup: # return recorded MRSA (mm) [10 μg/6 mm disc] for input COC(=O)[C@@H]1Cc2cc(Br)c(c(Br)c2)Oc2cc(cc(I)c2O)C[C@H](NC(=O)OC(C)(C)C)C(=O)N[C@@H](C(C)O)C(=O)N1 (some centres unmarked) [Compound (12)]
Found: 9

---

Tested on: mouse peritoneal macrophages
Experiment: Inhibition of production of cholesteryl ester from [14C] oleic acid in mouse peritoneal macrophages
Assay type: cell-based
Conditions: Mus musculus, Peritoneal macrophage, 14 h, read-out: Macrophage [IC50 μg/mL]
ASSAY_ENDPOINT: IC50

Lookup: Quote mouse peritoneal macrophages IC50 for entry C[C@@H](O)[C@@H]1NC(=O)[C@@H](NC(=O)OC(C)(C)C)Cc2cc(I)c(O)c(c2)Oc2c(Br)cc(cc2Br)CC(C(=O)O)NC1=O (stereo partly drawn) [Compound (3), N-Boc-dibromo-iodo-eurypamide B] .
Found: > 10 µg/mL

Lookup: Look up and report measured IC50 (mouse peritoneal macrophages) for the following compound: CC(OCc1ccccc1)[C@@H]1NC(=O)[C@@H](NC(=O)OC(C)(C)C)Cc2cc(I)c(O)c(c2)Oc2c(Br)cc(cc2Br)C[C@@H](C(=O)O)NC1=O (stereo partly drawn) [Compound (9)]
Found: > 10 µg/mL

Lookup: Please indicate recorded IC50 of COC(=O)[C@@H]1Cc2cc(Br)c(c(Br)c2)Oc2cc(cc(I)c2O)C[C@H](NC(=O)OC(C)(C)C)C(=O)N[C@@H](C(C)O)C(=O)N1 (stereo partly drawn) [Compound (12)] measured with mouse peritoneal macrophages.
Found: > 10 µg/mL

These measurements were taken from patent US20080318842A1.
